Reference source for all entries: patent US20120245137A1

biological target: human α1H T-type channels (Homo sapiens); test: T-type calcium channel block, whole cell patch clamp, α1H; settings: HEK cells stably expressing human α1H; mainly non-inactivated protocol; values above 10,000 nM represented as 10000
endpoint_label: IC50 (nM)
# unit: nM | format: bare number

Record excerpt, results attached:
| compound | unit_tag | IC50 |
| --- | --- | --- |
| O=C(N[C@H]1CC[C@@](F)(S(=O)(=O)c2cccc(C(F)(F)F)c2)CC1)[C@@H]1C[C@H](c2ccccc2)CN1 [Compound 286] | nM | 1540 |
| O=C(CN[C@H]1C[C@@H](S(=O)(=O)c2cccc(C(F)(F)F)c2)C1)NC1CCC(F)(F)CC1 [Compound 431] | nM | 240 |
| CC(C)(C)c1ccc(S(=O)(=O)NCC(C)(C)S(=O)(=O)c2cccc(C(F)(F)F)c2)cc1 [Compound 499] | nM | 1010 |

Continue with the next compound.
Query block: Name the recorded IC50 of the item Cn1nc(C(F)(F)F)cc1C(=O)NC[C@H]1C[C@@H](S(=O)(=O)c2cccc(C(F)(F)F)c2)C1 [Compound 378] in your answer.
Result block: 1630

* * *

molecular target: Human Cav 2.2 channels (Homo sapiens); assay: Fluorescent assay for CaV2.2 channels using potassium depolarization (VIPR/FLIPR); type: cell-based; settings: FLIPR data; inactivated state; read-out: CAv2.2 IC50 Inact.
Sequence (Q00975 whole entry): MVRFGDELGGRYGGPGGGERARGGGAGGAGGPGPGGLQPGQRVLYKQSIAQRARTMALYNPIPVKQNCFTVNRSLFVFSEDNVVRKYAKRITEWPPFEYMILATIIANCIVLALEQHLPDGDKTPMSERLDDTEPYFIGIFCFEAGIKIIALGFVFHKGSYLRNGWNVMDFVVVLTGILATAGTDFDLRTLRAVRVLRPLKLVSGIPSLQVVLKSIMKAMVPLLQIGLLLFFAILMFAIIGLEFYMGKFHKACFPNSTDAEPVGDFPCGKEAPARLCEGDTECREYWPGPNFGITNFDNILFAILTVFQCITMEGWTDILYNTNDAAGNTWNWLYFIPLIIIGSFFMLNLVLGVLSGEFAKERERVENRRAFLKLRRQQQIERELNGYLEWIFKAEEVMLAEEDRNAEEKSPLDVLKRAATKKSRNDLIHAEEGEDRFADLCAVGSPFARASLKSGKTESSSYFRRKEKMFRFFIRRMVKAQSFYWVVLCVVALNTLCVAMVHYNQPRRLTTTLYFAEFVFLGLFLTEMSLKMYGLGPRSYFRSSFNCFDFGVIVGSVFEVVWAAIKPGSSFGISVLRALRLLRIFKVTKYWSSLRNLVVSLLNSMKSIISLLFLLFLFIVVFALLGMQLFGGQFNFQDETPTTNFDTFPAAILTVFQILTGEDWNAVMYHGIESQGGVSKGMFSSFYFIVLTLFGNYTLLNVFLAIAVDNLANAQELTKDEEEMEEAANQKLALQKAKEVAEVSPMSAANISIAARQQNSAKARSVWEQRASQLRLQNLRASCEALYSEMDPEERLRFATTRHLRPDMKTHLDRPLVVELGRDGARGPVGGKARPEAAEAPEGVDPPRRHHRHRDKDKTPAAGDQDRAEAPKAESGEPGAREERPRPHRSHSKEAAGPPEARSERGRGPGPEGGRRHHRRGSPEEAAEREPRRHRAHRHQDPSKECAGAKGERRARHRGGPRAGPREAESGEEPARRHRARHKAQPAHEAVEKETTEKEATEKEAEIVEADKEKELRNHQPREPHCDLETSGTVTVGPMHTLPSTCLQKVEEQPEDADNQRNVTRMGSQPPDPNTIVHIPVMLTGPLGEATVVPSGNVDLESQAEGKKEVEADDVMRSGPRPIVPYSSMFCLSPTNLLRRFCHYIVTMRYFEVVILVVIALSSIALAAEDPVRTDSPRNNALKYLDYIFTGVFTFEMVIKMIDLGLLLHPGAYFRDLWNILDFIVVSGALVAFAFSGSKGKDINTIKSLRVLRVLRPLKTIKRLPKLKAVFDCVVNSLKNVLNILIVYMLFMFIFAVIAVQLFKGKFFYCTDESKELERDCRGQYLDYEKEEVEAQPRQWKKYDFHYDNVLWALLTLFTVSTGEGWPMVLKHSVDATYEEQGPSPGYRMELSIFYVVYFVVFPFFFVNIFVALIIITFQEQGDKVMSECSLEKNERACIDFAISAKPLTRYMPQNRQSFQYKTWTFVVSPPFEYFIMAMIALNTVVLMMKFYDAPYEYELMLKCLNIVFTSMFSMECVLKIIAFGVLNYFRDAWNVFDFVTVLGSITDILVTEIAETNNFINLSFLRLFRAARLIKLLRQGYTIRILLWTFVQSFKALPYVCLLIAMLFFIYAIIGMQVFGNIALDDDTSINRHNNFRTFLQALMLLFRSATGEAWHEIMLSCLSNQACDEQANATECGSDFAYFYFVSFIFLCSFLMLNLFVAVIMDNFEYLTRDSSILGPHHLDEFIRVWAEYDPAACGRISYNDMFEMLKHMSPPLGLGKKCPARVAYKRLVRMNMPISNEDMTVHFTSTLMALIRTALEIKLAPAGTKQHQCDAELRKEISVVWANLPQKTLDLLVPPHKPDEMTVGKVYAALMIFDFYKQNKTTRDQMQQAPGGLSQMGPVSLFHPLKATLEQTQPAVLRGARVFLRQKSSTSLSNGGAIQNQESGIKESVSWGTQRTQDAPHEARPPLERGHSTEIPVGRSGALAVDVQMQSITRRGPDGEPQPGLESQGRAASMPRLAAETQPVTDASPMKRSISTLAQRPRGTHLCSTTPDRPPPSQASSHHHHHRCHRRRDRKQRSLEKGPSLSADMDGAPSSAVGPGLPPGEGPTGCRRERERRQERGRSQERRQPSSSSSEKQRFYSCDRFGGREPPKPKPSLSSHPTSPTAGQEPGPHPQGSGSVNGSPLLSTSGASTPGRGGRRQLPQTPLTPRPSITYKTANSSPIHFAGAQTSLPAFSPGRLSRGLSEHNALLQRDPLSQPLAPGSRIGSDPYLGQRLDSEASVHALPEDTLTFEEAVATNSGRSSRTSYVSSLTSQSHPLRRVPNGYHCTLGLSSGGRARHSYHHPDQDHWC
Sequence (P54289 25-1103 partner): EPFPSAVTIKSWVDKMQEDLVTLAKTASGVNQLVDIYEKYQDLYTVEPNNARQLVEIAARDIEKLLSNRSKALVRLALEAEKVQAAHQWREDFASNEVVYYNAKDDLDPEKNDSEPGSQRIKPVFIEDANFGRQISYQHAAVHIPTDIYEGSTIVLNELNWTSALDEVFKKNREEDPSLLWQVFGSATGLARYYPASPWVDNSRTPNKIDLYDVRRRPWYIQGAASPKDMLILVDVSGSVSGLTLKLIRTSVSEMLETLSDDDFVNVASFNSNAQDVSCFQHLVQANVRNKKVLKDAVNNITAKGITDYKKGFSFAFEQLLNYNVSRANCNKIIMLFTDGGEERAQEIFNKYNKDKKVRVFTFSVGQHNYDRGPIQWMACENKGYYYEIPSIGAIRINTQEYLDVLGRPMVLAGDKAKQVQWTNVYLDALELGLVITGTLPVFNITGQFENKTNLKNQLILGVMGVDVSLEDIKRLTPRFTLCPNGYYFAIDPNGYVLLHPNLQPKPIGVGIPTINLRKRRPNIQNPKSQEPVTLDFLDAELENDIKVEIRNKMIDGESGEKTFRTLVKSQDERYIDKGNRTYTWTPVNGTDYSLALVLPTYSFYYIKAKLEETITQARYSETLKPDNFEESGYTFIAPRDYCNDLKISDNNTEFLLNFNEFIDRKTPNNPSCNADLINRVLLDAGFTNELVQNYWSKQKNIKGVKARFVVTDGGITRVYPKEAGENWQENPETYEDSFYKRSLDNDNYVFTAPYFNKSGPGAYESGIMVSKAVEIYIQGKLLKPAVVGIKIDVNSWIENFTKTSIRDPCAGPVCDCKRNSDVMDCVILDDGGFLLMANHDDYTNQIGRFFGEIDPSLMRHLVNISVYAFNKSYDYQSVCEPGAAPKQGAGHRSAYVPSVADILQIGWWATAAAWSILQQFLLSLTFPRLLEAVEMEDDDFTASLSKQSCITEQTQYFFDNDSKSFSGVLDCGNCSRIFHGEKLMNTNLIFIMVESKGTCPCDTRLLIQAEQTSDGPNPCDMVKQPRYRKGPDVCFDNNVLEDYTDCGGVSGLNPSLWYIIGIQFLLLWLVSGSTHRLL
Sequence (P54284 whole entry partner): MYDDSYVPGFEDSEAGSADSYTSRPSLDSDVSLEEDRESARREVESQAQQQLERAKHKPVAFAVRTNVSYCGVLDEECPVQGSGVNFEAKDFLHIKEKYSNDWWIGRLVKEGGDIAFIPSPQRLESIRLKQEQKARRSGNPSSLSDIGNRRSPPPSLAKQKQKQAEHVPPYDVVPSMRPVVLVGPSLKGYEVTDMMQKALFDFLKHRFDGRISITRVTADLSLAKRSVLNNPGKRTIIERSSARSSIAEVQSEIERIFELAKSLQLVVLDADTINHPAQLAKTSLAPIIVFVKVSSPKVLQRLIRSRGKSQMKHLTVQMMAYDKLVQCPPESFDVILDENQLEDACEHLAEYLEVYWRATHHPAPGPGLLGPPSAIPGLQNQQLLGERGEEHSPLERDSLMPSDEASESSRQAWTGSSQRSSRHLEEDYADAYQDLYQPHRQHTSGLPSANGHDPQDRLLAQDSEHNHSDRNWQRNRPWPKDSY
endpoint_label: IC50

Record excerpt, results attached:
| compound | IC50 |
| --- | --- |
| CC(C)([C@H]1C[C@@H](NS(=O)(=O)c2ccc(Cl)c(F)c2)C1)S(=O)(=O)c1cccc(C(F)(F)F)c1 [Compound 626] | 1100 nM |
| Cn1nc(C(F)(F)F)cc1C(=O)N[C@H]1C[C@H](CC(C)(C)S(=O)(=O)c2cccc(C(F)(F)F)c2)C1 [Compound 725] | 140 nM |

Query block: Under Human Cav 2.2 channels (Homo sapiens), report IC50 for N[C@H]1CCCC[C@@H]1C(=O)NC[C@H]1C[C@H](S(=O)(=O)c2cc(F)cc(C(F)(F)F)c2)C1 [Compound 712]
Result block: 6020 nM

Query block: Under Human Cav 2.2 channels (Homo sapiens), report IC50 for CC(C)S(=O)(=O)c1cc(C(F)(F)F)cnc1C(=O)NC[C@H]1C[C@@H](C(C)(C)S(=O)(=O)c2cccc(C(F)(F)F)c2)C1 [Compound 681]
Result block: 160 nM

Query block: Under Human Cav 2.2 channels (Homo sapiens), report IC50 for CC(C)(C[C@H]1C[C@H](NC(=O)c2ccc(C(F)(F)F)cn2)C1)S(=O)(=O)c1cccc(C(F)(F)F)c1 [Compound 722]
Result block: 230 nM

Query block: Under Human Cav 2.2 channels (Homo sapiens), report IC50 for CC(C)(C[C@H]1C[C@H](NC(=O)c2ccc(C(F)(F)F)nc2)C1)S(=O)(=O)c1cccc(C(F)(F)F)c1 [Compound 723]
Result block: 490 nM

Query block: Under Human Cav 2.2 channels (Homo sapiens), report IC50 for CC(C)(C[C@H]1C[C@H](NC(=O)c2ccc(Cl)cn2)C1)S(=O)(=O)c1cccc(C(F)(F)F)c1 [Compound 720]
Result block: 160 nM

* * *

target: N-type calcium channel subunits (α1B, α2δ, and β3a) (Homo sapiens, UniProt Q00975); test: Block of Cav2.2 channel, whole cell voltage clamp, manual and PatchXpress; format: cell-based; details: Table 5; table follows Assay Example 3 (whole cell voltage clamp / PatchXpress); assay not given
Sequence (Q00975 whole entry): as the sequence (Q00975 whole entry) above
Sequence (P54289 25-1103 partner): as the sequence (P54289 25-1103 partner) above
Sequence (P54284 whole entry partner): as the sequence (P54284 whole entry partner) above
endpoint_label: IC50 (nM)
# unit: nM | format: bare number

Record excerpt, results attached:
| compound | endpoint_label | unit_tag | observed_measurement |
| --- | --- | --- | --- |
| O=C(NCC1CC(S(=O)(=O)c2cc(F)cc(C(F)(F)F)c2)C1)c1cc(F)cc(Cl)c1 (stereo not shown) | IC50 | nM | 940 |
| O=S(=O)(c1cccc(C(F)(F)F)c1)C1CC(c2c[nH]c(C(F)(F)F)n2)C1 (stereo not shown) | IC50 | nM | 2840 |
| CC(C)(C)NC(=O)CN[C@H]1CC[C@H](CS(=O)(=O)c2cccc(C(F)(F)F)c2)CC1 | IC50 | nM | 510 |

Continue with the next compound.
Query block: Name the recorded IC50 of the item CC(C)S(=O)(=O)c1cc(C(F)(F)F)cnc1C(=O)N[C@H]1CC[C@@H](CS(=O)(=O)c2cccc(C(F)(F)F)c2)CC1 in your answer.
Result block: 720
